- System Tested: T1, human glucagon receptor (human, UniProt P47871 26-477)
- T1 construct: whole, on cells; also called hGCGR; hGcgR
- T1 sequence (P47871 26-477): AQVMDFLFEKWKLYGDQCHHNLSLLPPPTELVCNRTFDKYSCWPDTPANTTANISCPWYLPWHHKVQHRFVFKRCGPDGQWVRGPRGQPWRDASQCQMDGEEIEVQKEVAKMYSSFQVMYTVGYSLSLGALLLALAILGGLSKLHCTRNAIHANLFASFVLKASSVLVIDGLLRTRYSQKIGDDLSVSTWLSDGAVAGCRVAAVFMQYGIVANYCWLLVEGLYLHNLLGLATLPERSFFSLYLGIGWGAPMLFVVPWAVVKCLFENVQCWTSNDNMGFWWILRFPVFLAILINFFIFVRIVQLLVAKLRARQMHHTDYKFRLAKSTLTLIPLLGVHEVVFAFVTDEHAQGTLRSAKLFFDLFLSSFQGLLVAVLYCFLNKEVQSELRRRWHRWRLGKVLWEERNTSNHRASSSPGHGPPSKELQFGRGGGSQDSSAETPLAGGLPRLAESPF
- Experiment: SPA competition vs [125I]-Gcg, hGcgR membranes
Recorded pKi, one value per entry.
// pKi is dimensionless: -log10 of concentration (M)

Illustrative cases are given below, each with its answer.
Binder	Quantity Measured	Value Measured
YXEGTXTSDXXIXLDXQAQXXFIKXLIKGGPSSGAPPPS (Aib2, αMeF(2F)6, 4Pal10, Aib11, αMeL13, Orn16, Aib20, Orn21, K24(Z1), αMeY25, K28(Z1), C-term NH2; Z1=(γ-Glu)-AEEA2-(γ-Glu)-(10-(4-carboxyphenoxy)decanoyl))	pKi	6.82
YXEGTXTSDXSIXLDXIAQXEFIXXLIKGGKSSGAPPPS (Aib2, αMeF(2F)6, 4Pal10, αMeL13, Orn16, Aib20, D-Glu24, αMeY25, K28(Z1), K31(Z1), C-term NH2; Z1=AEEA2-(γ-Glu)-CO-(CH2)14-CH3)	pKi	8.42

Continue with the binder presented below.
Input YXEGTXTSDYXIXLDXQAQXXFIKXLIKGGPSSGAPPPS (Aib2, αMeF(2F)6, Aib11, αMeL13, Orn16, Aib20, Orn21, K24(Z1), αMeY25, K28(Z1), C-term NH2; Z1=AEEA2-(γ-Glu)2-CO-(CH2)12-CO2H) , output reported pKi.
7.05
